Data origin: ChEMBL document CHEMBL1201862

test system: KM12; experiment: NCI tumour cell line growth inhibition, 48 h
Activity calls are given as the source filed them. Rule as the data show it: active = GI50 up to about 1.1 µM and inactive = higher.
Outcomes: active, inactive

CCCCCCCC/C=C(\Br)C(O)C(Br)Br (stereo not given)    inactive
Cc1cccc(NC(=O)/C(=N\N)C(c2cnc3ccc([N+](=O)[O-])cc3n2)[N+](=O)[O-])c1C (stereo not given)    inactive
Cc1cn(C2CC(N)C(C(=O)NCC(=O)O)O2)c(=O)[nH]c1=O (stereo not given)    inactive
C[C@]12CCC(=O)C=C1CC[C@@H]1[C@@H]2C(=O)C[C@@]2(C)[C@H]1CC[C@]2(O)C(=O)CO    inactive
O=c1cc(/N=N\c2ccc(Cl)c(Cl)c2)[nH]c(=O)[nH]1    inactive
CC[P+]1(c2ccccc2)[C@@H](C)CC[C@@H]1C    inactive
COc1cc(COC(=O)N(C)[C@@H](Cc2ccccc2)C(=O)O)c([N+](=O)[O-])cc1OC    inactive
COC(=O)C(Cc1ccc2c(c1)CCC2)Cc1ccc2c(c1)CCC2    inactive
COc1cc(OC)c(OC)cc1/C=C/c1ccccn1    inactive
COC(=O)C(CCCCN)NC(C)=O.Cc1ccc(C(=O)Nc2ccc(S(=O)(=O)O)c3cc(S(=O)(=O)O)cc(S(=O)(=O)O)c23)cc1NC(=O)c1cccc(NC(=O)Nc2cccc(C(=O)Nc3cc(C(=O)Nc4ccc(S(=O)(=O)O)c5cc(S(=O)(=O)O)cc(S(=O)(=O)O)c45)ccc3C)c2)c1    inactive
CCOC(=O)/C(C#N)=C1\c2c([nH]c(=S)[nH]c2=O)Oc2ccc3ccccc3c21    inactive
O=C(/C=C/c1cccs1)c1ccsc1    inactive
COc1cc2c(cc1O)CCN[C@@]21CS[C@H]2c3c(OC(C)=O)c(C)c4c(c3C(COC1=O)N1C2C2c3c(cc(C)c(OC)c3O)CC([C@@H]1O)N2C)OCO4 (stereo not given in full)    active
COc1ccccc1-c1nc(-c2ccccc2O)n[nH]1    inactive
COc1ccc(NC(=O)CC/C(CC(=O)c2ccco2)=N/NC(N)=S)cc1    inactive
O=C(O)c1cccc(/C=C/c2ccccc2)c1    inactive
O=S(=O)(c1ccccc1)c1ccc(/N=N/O)nc1    inactive
Cc1c(C(=O)OCc2ccccc2)[n+]([O-])c2cc(F)c(F)cc2[n+]1[O-]    inactive
COc1ccc(OC)c2sc(N3C(=O)/C(=C/c4ccc(SC)cc4)N=C3c3ccccc3)nc12    inactive
Nc1ccc(C(=O)N2CCC[C@H]2CO)c(N)c1    inactive
CC(=O)/C=C1\CC(=O)Nc2ccccc2N1    inactive
CC(C)=CCc1[nH]c2ccccc2c1C1=C(O)C(=O)C(c2c(CC=C(C)C)[nH]c3ccccc23)=C(O)C1=O    active
C/N=C(\N=c1/ss/c(=N\C)n1C)N(C)C.[O-][Cl+3]([O-])([O-])O    inactive
CC1(C)C2CCC1C(=O)C(C=O)C2 (stereo not given)    inactive
O=C1NC(Cc2ccc(O)cc2)C(=O)N2CCCC12 (stereo not given)    inactive
COC(=O)c1c[nH]c(=O)[nH]c1=O    inactive
CC1(C)OCC([C@H]2CC23SCCCS3)O1 (stereo not given in full)    inactive
CC12CC1C(c1cccc([N+](=O)[O-])c1)(c1cccc([N+](=O)[O-])c1)N=N2 (stereo not given)    inactive
C[n+]1cc(C(O)c2ccc3c(c2)OCO3)c2ccccc2c1 (stereo not given)    inactive
N#C/C(=C\c1cccc(Cl)c1Cl)c1ccccc1    inactive
